In this section, each of the compounds is paired with its reported pIC50.
Target: full-length beta-Catenin (Uniprot ID P35222) (Homo sapiens)
Construct: 10 nM full-length beta-Catenin (Uniprot ID P35222)
Assay: Fluorescence polarization IC50 (beta-catenin / 5FAM-TCF4 10-53 competition)
Type: binding
Conditions: fluorescence polarization; read-out: beta-Catenin FP IC50
pIC50: −log10 of the molar value.
parameter-measured: pIC50

CC(=O)N1CCC[C@]12CC=CCCCC1(CCCC=CCCCOC(=O)N3CC[C@@](C(=O)N[C@@H](Cc4ccccc4C(F)(F)F)C(=O)N[C@H](C(=O)N[C@@H](CCC(N)=O)C(N)=O)[C@H](C)c4csc5ccccc45)(C3)NC(=O)[C@H](CC(C)C)NC(=O)[C@H](Cc3ccccc3)NC(=O)[C@H](C)NC(=O)[C@H](C)NC(=O)[C@H](Cc3cccc(C(=O)O)c3)NC(=O)[C@H](CC(=O)O)NC1=O)NC(=O)[C@H](CC(C)(C)C)NC(=O)[C@H](CC(=O)O)NC2=O (stereo partly drawn)	7.48
CC(=O)N1CCC[C@]12CC=CCCCCC1(CCCCC=CCOC(=O)N3CC[C@@](C(=O)N[C@@H](Cc4ccccc4C(F)(F)F)C(=O)N[C@@H](Cc4csc5ccccc45)C(=O)N[C@@H](CCC(N)=O)C(N)=O)(C3)NC(=O)[C@H](CC(C)C)NC(=O)[C@H](Cc3ccccc3)NC(=O)[C@H](C)NC(=O)[C@H](C)NC(=O)[C@H](Cc3cccc(C(=O)O)c3)NC(=O)[C@H](CC(=O)O)NC1=O)NC(=O)[C@H](CC(C)(C)C)NC(=O)[C@H](CC(=O)O)NC2=O (stereo partly drawn) [I-2518]	6.67
CC(=O)N1CCC[C@]12CC=CCCCC1(CCCC=CCCCCCC[C@@](C)(C(=O)N[C@@H](Cc3ccccc3)C(=O)N[C@@H](Cc3csc4ccccc34)C(=O)N[C@@H](CCC(N)=O)C(N)=O)NC(=O)[C@H](CC(N)=O)NC(=O)[C@H](Cc3ccco3)NC(=O)[C@H](C)NC(=O)[C@H](C)NC(=O)[C@H](CCC(=O)O)NC(=O)[C@H](CC(=O)O)NC1=O)NC(=O)[C@H](C)NC(=O)[C@H](CC(=O)O)NC2=O (stereo partly drawn)	6.71

====

Target: full-length beta-Catenin (Uniprot ID P35222) (Homo sapiens)
Construct: 10 nM full-length beta-Catenin (Uniprot ID P35222)
Experiment: Fluorescence polarization IC50 (beta-catenin / 5FAM-TCF4 10-53 competition)
Assay type: binding
Settings: read-out: beta-Catenin FP IC50
parameter-measured: IC50 (nM)

CC(=O)N1CCC[C@]12CC=CCCCC1(CCCC=CCCCOC(=O)N3CC[C@@](C(=O)N[C@@H](Cc4ccsc4)C(=O)N[C@@H](Cc4csc5ccccc45)C(=O)N[C@@H](CCC(N)=O)C(=O)N[C@@H](CCCCNC(=O)CCc4cc(C(F)(F)F)cc(C(F)(F)F)c4)C(N)=O)(C3)NC(=O)[C@H](CC(N)=O)NC(=O)[C@H](Cc3ccccc3)NC(=O)[C@H](C)NC(=O)[C@H](C)NC(=O)[C@H](CC(=O)O)NC(=O)[C@H](CC(=O)O)NC1=O)NC(=O)[C@H](CC(C)(C)C)NC(=O)[C@H](CC(=O)O)NC2=O (some centres unmarked)	104
CC(=O)N1CCC[C@]12CC=CCCCC1(CCCC=CCCCOC(=O)N3CC[C@@](C(=O)N[C@@H](Cc4ccccc4Cl)C(=O)N[C@@H](Cc4csc5ccccc45)C(=O)N[C@@H](Cc4c[nH]cn4)C(N)=O)(C3)NC(=O)[C@H](CC(N)=O)NC(=O)[C@H](Cc3ccccc3)NC(=O)[C@H](C)NC(=O)[C@H](C)NC(=O)[C@H](CC(=O)O)NC(=O)[C@H](CC(=O)O)NC1=O)NC(=O)[C@H](CC(C)(C)C)NC(=O)[C@H](CC(=O)O)NC2=O (some centres unmarked)	6

====

Recorded IC50 values for a group of molecules are listed next.
Molecular target: full-length beta-Catenin (Uniprot ID P35222) (Homo sapiens, UniProt P35222)
Construct: 10 nM full-length beta-Catenin (Uniprot ID P35222)
Sequence (P35222 whole entry): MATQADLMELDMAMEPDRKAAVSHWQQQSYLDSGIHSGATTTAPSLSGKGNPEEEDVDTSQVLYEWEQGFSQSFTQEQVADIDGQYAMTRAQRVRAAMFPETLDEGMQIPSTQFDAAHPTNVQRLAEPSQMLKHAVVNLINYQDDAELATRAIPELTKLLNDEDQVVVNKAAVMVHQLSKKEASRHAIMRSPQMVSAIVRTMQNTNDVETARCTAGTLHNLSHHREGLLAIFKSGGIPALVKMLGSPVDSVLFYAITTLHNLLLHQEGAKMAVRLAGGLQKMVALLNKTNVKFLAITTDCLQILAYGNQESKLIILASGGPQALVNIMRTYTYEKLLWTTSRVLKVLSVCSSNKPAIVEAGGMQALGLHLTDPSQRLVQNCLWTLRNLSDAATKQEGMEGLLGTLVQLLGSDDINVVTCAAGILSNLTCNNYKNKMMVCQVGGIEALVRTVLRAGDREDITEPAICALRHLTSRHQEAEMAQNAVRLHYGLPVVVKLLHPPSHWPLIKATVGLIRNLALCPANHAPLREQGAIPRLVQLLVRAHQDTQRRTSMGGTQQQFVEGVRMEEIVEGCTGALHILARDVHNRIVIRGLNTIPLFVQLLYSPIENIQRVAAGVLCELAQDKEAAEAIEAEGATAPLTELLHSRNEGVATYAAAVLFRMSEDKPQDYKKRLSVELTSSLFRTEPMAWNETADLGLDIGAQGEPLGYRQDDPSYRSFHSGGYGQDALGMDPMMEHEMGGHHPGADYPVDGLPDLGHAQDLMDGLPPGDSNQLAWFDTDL
Assay: Fluorescence polarization IC50 (beta-catenin / 5FAM-TCF4 10-53 competition)
Type: binding
Settings: Table E2-1; read-out: beta-Catenin FP IC50
parameter-measured: IC50 (nM)

CC(=O)N1CCC[C@]12CC=CCCCC1(CCCC=CCOC(=O)N(C)CCC[C@@](C)(C(=O)N[C@@H](Cc3ccccc3)C(=O)N[C@@H](Cc3c[nH]c4ccccc34)C(=O)N[C@@H](CCC(N)=O)C(N)=O)NC(=O)[C@H](C(C)C)NC(=O)[C@H](Cc3ccccc3)NC(=O)[C@H](C)NC(=O)[C@H](C)NC(=O)[C@H](CC(=O)O)NC(=O)[C@H](CC(=O)O)NC1=O)NC(=O)[C@H](C)NC(=O)[C@H](CC(=O)O)NC2=O (some centres unmarked) [I-54]	3190
CC(=O)N1CCC[C@]12CC=CCCCC1(CCCC=CCCCCCC[C@@](C)(C(=O)N[C@@H](Cc3ccccc3)C(=O)N[C@@H](Cc3c[nH]c4ccccc34)C(=O)N[C@@H](C)C(N)=O)NC(=O)[C@H](C(C)C)NC(=O)[C@H](Cc3ccccc3)NC(=O)[C@H](C)NC(=O)[C@H](C)NC(=O)[C@H](CC(=O)O)NC(=O)[C@H](CC(=O)O)NC1=O)NC(=O)[C@H](C)NC(=O)[C@H](CC(=O)O)NC2=O (some centres unmarked) [I-292]	1870
CC(=O)N1CCC[C@]12CC=CCCCC1(CCCC=CCCCCCC[C@@](C)(C(=O)N[C@@H](Cc3ccc(F)cc3)C(=O)N[C@@H](Cc3c[nH]c4ccccc34)C(=O)N[C@@H](CCC(N)=O)C(N)=O)NC(=O)[C@H](C(C)C)NC(=O)[C@H](Cc3ccccc3)NC(=O)[C@H](C)NC(=O)[C@H](C)NC(=O)[C@H](CC(=O)O)NC(=O)[C@H](CC(=O)O)NC1=O)NC(=O)[C@H](C)NC(=O)[C@H](CC(=O)O)NC2=O (some centres unmarked) [I-261]	5000
CC(=O)N1CCC[C@]12CC=CCCCC1(CCCC=CCCCCCC[C@@](C)(C(=O)N[C@@H](Cc3ccccc3)C(=O)N[C@@H](Cc3csc4ccccc34)C(=O)N[C@@H](CCC(N)=O)C(N)=O)NC(=O)[C@H](CC(N)=O)NC(=O)[C@H](Cc3ccccc3)NC(=O)[C@H](C)NC(=O)[C@H](C)NC(=O)[C@H](CC(=O)O)NC(=O)[C@H](CC(=O)O)NC1=O)NC(=O)[C@H](C)NC(=O)[C@H](CC(=O)O)NC2=O (some centres unmarked) [I-344]	42
CC(=O)N1CCC[C@]12CC=CCCCC1(CCCC=CCCCCCC[C@@](C)(C(=O)N[C@@H](Cc3ccccc3)C(=O)N[C@@H](Cc3c[nH]c4ccccc34)C(=O)N[C@@H](CCC(N)=O)C(N)=O)NC(=O)[C@H](C(C)C)NC(=O)[C@H](Cc3cccc(C(F)(F)F)c3)NC(=O)[C@H](C)NC(=O)[C@H](C)NC(=O)[C@H](CC(=O)O)NC(=O)[C@H](CC(=O)O)NC1=O)NC(=O)[C@H](C)NC(=O)[C@H](CC(=O)O)NC2=O (some centres unmarked) [I-238]	1590

====

Assay: Solubility in PBS
Assay type: physicochemical
Below is a list of entries, each paired with its recorded Solubility value.
parameter-measured: Solubility (µM)

CC(=O)N1CCC[C@]12CC=CCCCC1(CCCC=CCCCCCC[C@@](C)(C(=O)N[C@@H](Cc3ccccc3)C(=O)N[C@@H](Cc3csc4ccccc34)C(=O)N[C@@H](CCC(N)=O)C(N)=O)NC(=O)[C@H](CCC(N)=O)NC(=O)[C@H](Cc3ccccc3)NC(=O)[C@H](C)NC(=O)[C@H](C)NC(=O)[C@H](CCC(=O)O)NC(=O)[C@H](CCO)NC1=O)NC(=O)[C@H](C)NC(=O)[C@H](CC(=O)O)NC2=O (stereo partly drawn) [I-497]	29
CC[C@H](C)[C@@H]1NC(=O)[C@H](CC(=O)O)NC(=O)[C@]2(CC=CCCCC3(CCCC=CCCCCCC[C@@](C)(C(=O)N[C@@H](Cc4ccccc4)C(=O)N[C@@H](Cc4csc5ccccc45)C(=O)N[C@@H](CCC(N)=O)C(N)=O)NC(=O)[C@H](CCC(N)=O)NC(=O)[C@H](Cc4ccccc4)NC(=O)[C@H](C)NC(=O)[C@H](C)NC(=O)[C@H](CCCNC(N)=O)NC(=O)[C@H](CC(=O)O)NC3=O)NC1=O)CCCN2C(C)=O (stereo partly drawn) [I-605]	10
CC[C@H](C)[C@@H]1NC(=O)[C@H](CC(=O)O)NC(=O)[C@]2(CC=CCCCC3(CCCC=CCCCCCC[C@@](C)(C(=O)N[C@@H](Cc4ccccc4)C(=O)N[C@@H](Cc4csc5ccccc45)C(=O)N[C@@H](CO)C(N)=O)NC(=O)[C@H](CCC(N)=O)NC(=O)[C@H](Cc4ccccc4)NC(=O)[C@H](C)NC(=O)[C@H](C)NC(=O)[C@H](CCC(=O)O)NC(=O)[C@H](CC(=O)O)NC3=O)NC1=O)CCCN2C(C)=O (stereo partly drawn) [I-639]	44
